# Test system: COLO 205
# measurement-protocol: Anticancer activity against human COLO205 cells by MTT assay
# Type: functional, cell-based
recorded-endpoint: IC50 (µM)

| molecule | endpoint-result |
| --- | --- |
| CC(C)COC(=O)N1CCCc2cc(S(=O)(=O)N3CC(c4ccccc4)NC3=O)ccc21 (centres undefined) | 3.72 |
| O=C1NC(c2ccccc2)CN1S(=O)(=O)c1ccc2c(c1)CCCN2C(=O)C(F)(F)F (centres undefined) | 10.7 |
| COc1cccc2c1C(=O)c1c(O)c3c(c(O)c1C2=O)C[C@@](O)(C(=O)CO)C[C@@H]3O[C@H]1C[C@H](N)[C@H](O)[C@H](C)O1 | 0.4 |

(P) C=CCOC(=O)N1CCCc2cc(S(=O)(=O)N3CC(c4ccccc4)NC3=O)ccc21 (centres undefined)
(Q) O=C(NC1CCCCC1)N1CCCc2cc(S(=O)(=O)N3CC(c4ccccc4)NC3=O)ccc21 (centres undefined)
(R) O=C(CCl)N1CCCc2cc(S(=O)(=O)N3CC(c4ccccc4)NC3=O)ccc21 (centres undefined)
(S) O=C(Nc1ccc(Cl)cc1)NS(=O)(=O)c1ccc2c(c1)CCC2
(T) CCCOC(=O)N1CCCc2cc(S(=O)(=O)N3CC(c4ccccc4)NC3=O)ccc21 (centres undefined)
Rank descending by IC50. # list labels per requested ordering
S, R, P, Q, T
(S: 23.1 µM, R: 11.2 µM, P: 6.58 µM, Q: 3.89 µM, T: 1.42 µM)

(A) COC(=O)N1CCCc2cc(S(=O)(=O)N3CC(c4ccccc4)NC3=O)ccc21 (centres undefined)
(B) O=C(CCl)NC(=O)N1CCCc2cc(S(=O)(=O)N3CC(c4ccccc4)NC3=O)ccc21 (centres undefined)
(C) O=C(c1ccccc1)N1CCCc2cc(S(=O)(=O)N3CC(c4ccccc4)NC3=O)ccc21 (centres undefined)
(D) CCOC(=O)N1CCCc2cc(S(=O)(=O)N3CC(c4ccccc4)NC3=O)ccc21 (centres undefined)
Rank items: key IC50, increasing. Enter labels, ranked according to the request.
D, A, B, C
(D: 2.78 µM, A: 4.01 µM, B: 9.9 µM, C: 19.3 µM)

(P) CCCCOC(=O)N1CCCc2cc(S(=O)(=O)N3CC(c4ccccc4)NC3=O)ccc21 (centres undefined)
(Q) O=C(OCCCl)N1CCCc2cc(S(=O)(=O)N3CC(c4ccccc4)NC3=O)ccc21 (centres undefined)
(R) O=C1NC(c2ccccc2)CN1S(=O)(=O)c1ccc2c(c1)CCCN2 (centres undefined)
// ascending sort on recorded IC50 # the answer lists labels in the order requested
Q, P, R
(Q: 2.82 µM, P: 4.11 µM, R: 7.23 µM)

====

Attribute: IC50
# measurement-protocol: Anticancer activity against human KATO III cells by MTT assay
# Assay type: functional, cell-based, KATO III cell
// units = µM; emit number, no label

| compound | unit-label | IC50 |
| --- | --- | --- |
| O=C1NC(c2ccccc2)CN1S(=O)(=O)c1ccc2c(c1)CCCN2C(=O)C(F)(F)F (stereo not given) | µM | 13.1 |
| O=C(c1ccccc1)N1CCCc2cc(S(=O)(=O)N3CC(c4ccccc4)NC3=O)ccc21 (stereo not given) | µM | 14.3 |

Note IC50 for the compound shown: CCOC(=O)N1CCCc2cc(S(=O)(=O)N3CC(c4ccccc4)NC3=O)ccc21 (stereo not given)
11.2

====

# Test system: A549
# measurement-protocol: Anticancer activity against human A549 cells by MTT assay
# Format: functional, cell-based
recorded-endpoint: IC50 (nM)

Below, each entry is followed by its recorded IC50 result.
| compound | recorded-endpoint | endpoint-result |
| --- | --- | --- |
| CCCOC(=O)N1CCCc2cc(S(=O)(=O)N3CC(c4ccccc4)NC3=O)ccc21 (stereo not drawn) | IC50 | 1030 |
| NC(=O)N1CCCc2cc(S(=O)(=O)N3CC(c4ccccc4)NC3=O)ccc21 (stereo not drawn) | IC50 | 2540 |

(P) O=C(NC1CCCCC1)N1CCCc2cc(S(=O)(=O)N3CC(c4ccccc4)NC3=O)ccc21 (stereo not drawn)
(Q) O=C(CCl)NC(=O)N1CCCc2cc(S(=O)(=O)N3CC(c4ccccc4)NC3=O)ccc21 (stereo not drawn)
Select one: P or Q . Criterion: greater recorded IC50. // caller expects the label of the chosen entry
Q
(Q: 449 nM, P: 231 nM)
